- measurement target: CYP2C19 (Homo sapiens)
- Sequence (P33261 whole entry): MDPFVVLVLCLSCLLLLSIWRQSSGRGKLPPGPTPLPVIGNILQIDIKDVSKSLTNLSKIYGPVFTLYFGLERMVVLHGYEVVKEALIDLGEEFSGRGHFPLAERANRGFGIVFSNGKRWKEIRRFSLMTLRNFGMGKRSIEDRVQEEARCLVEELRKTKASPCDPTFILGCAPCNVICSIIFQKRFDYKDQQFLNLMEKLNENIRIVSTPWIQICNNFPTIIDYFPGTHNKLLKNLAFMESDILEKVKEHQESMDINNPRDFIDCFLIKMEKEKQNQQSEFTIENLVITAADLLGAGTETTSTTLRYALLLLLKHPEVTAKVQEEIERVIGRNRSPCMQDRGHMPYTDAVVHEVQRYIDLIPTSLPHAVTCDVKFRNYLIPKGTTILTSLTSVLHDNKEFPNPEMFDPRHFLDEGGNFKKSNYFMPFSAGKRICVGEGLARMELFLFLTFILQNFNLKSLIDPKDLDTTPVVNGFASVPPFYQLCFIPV
- assay remarks: Inhibition of CYP2C19 (unknown origin) at 24 uM by luminescent readout-based method
- Assay type: ADME
measured endpoint: inhibition at 24 µM

Recorded inhibition at 24 µM of COc1ccc2[nH]c([S+]([O-])Cc3ncc(C)c(OC)c3C)nc2c1 (stereo unspecified) , please.
93.4%

---

- measurement target: CYP3A4 (Homo sapiens)
- Sequence (P08684 whole entry): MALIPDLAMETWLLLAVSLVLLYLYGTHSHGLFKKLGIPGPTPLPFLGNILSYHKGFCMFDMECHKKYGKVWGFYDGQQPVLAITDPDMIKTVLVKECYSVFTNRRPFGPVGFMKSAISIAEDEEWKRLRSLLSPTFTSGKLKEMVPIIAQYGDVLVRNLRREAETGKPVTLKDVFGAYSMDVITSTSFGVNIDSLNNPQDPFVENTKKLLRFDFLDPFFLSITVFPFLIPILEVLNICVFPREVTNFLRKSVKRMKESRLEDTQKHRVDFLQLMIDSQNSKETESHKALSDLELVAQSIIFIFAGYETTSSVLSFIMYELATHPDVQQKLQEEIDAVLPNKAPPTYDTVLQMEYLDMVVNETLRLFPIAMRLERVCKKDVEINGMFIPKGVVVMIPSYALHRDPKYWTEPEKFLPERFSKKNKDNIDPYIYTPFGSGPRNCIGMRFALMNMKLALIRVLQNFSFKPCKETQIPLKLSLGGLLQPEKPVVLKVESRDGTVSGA
- assay remarks: Inhibition of CYP3A4 (unknown origin) at 5 uM by luminescent readout-based method
- Type: ADME
measured endpoint: inhibition at 5 µM (%)
Express your answer in %, writing the number without its unit.

Sample records with inhibition at 5 µM:
chemical_structure=O=C(O)CCc1ccc(OCc2nc(-c3ccc(Cl)cc3)no2)cc1 reported_value=50.1
chemical_structure=Cc1ccc(-c2noc(COc3ccc(CCC(=O)O)cc3)n2)cc1 reported_value=29.2

Pending compound:
Fill in: inhibition at 5 µM of "Cc1oc(-c2ccccc2)nc1COc1ccc(CCC(=O)O)cc1" is ___
36.2

---

- measurement target: Free fatty acid receptor 1 (Homo sapiens, UniProt O14842)
- Sequence (O14842 whole entry): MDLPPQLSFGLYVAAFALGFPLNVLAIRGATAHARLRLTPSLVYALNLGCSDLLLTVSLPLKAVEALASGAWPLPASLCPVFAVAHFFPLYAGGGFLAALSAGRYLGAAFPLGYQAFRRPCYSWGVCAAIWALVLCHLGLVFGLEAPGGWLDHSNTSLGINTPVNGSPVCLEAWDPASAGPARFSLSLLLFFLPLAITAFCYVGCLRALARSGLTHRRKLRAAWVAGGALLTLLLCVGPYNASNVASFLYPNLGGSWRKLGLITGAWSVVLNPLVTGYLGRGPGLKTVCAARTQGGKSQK
- assay remarks: Agonist activity at GPR40 (unknown origin) expressed in CHO cells by FLIPR calcium flux assay in presence of 0.1% bovine serum albumin
measured endpoint: pEC50
By convention, pEC50 is the negative base-10 log of a molar concentration.

Consider the worked cases shown below.
chemical_structure=O=C(O)CCc1ccc(OCc2nc(-c3ccccc3Cl)no2)cc1 reported_value=5.92
chemical_structure=O=C(O)CCc1ccc(OCc2noc(-c3ccccc3)n2)cc1 reported_value=5.58
chemical_structure=Cc1ccc(-c2noc(COc3ccc(CCC(=O)O)cc3)n2)cc1 reported_value=6.52
chemical_structure=O=C(O)CCc1ccc(OCc2nc(-c3ccccc3)no2)c(Cl)c1 reported_value=4.88
chemical_structure=O=C(O)CCc1ccc(OCc2coc(-c3cccc(F)c3)n2)cc1 reported_value=6.25

// next entry
Endpoint output: pEC50 of "O=C(O)CCc1ccc(OCc2coc(-c3cccc(Cl)c3)n2)cc1" . Value?
6.80

---

- measurement target: UniProt:P10635
- Sequence (P10635 whole entry): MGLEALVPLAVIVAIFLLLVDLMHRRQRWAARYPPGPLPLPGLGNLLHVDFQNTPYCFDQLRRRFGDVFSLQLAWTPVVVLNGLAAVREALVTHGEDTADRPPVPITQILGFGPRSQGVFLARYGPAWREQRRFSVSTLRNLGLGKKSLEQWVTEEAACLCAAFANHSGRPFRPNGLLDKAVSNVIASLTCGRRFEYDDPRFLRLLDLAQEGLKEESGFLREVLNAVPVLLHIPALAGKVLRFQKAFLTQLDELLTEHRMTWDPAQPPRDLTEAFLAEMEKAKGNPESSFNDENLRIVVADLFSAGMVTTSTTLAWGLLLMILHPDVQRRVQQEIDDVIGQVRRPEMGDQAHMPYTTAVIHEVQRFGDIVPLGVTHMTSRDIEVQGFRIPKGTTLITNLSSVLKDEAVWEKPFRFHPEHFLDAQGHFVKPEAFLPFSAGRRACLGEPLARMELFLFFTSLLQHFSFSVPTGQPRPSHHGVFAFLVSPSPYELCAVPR
- assay remarks: Inhibition of CYP2D6 (unknown origin) at 1 uM by luminescent readout-based method
measured endpoint: inhibition at 1 µM (%)
// note: answer is a bare numeric in %

Quick one: inhibition at 1 µM of C=C[C@H]1C[N@@]2CC[C@H]1C[C@@H]2[C@@H](O)c1ccnc2ccc(OC)cc12 [QUINIDINE] ?
96.2

---

- measurement target: Free fatty acid receptor 1 (Homo sapiens, UniProt O14842)
- assay remarks: Agonist activity at GPR40 (unknown origin) expressed in CHO cells by FLIPR calcium flux assay in presence of 0.1% bovine serum albumin
measured endpoint: pEC50
Quick note: pEC50 means taking -log10 of the concentration in moles per liter.

Entry under review: "O=C(O)CCc1ccc(OCc2ncc(-c3ccccc3)o2)cc1" . Reported pEC50?
5.80

Consider the compound shown here: "O=C(O)CCc1ccc(OCc2ncc(-c3cccc(F)c3)o2)cc1" What is its recorded pEC50?
5.97

For the compound shown here, "Cc1oc(-c2ccccc2)nc1COc1ccc(CCC(=O)O)cc1" , give the reported pEC50.
7.24

Given the entry "O=C(O)CCc1ccc(OCc2nc(-c3ccccc3)no2)cc1" , report its measured pEC50.
5.95

Would you kindly share the measured pEC50 for "O=C(O)Cc1ccc(OCc2nc(-c3cccc(Cl)c3)no2)cc1" ?
4.73

Fill in: pEC50 of "O=C(O)CCc1ccc(OCc2coc(-c3ccccc3)n2)cc1" is ___
6.15

Which pEC50 is reported for this compound? "O=C(O)CCc1ccc(OCc2nc(-c3ccc(F)cc3)no2)cc1"
6.17

Look at this compound and give its reported pEC50. "Cc1cc(-c2noc(COc3ccc(CCC(=O)O)cc3)n2)ccc1F"
5.67

Report pEC50 for "COc1cccc(-c2noc(COc3ccc(CCC(=O)O)cc3)n2)c1" please.
5.57

Fill in the blank: the reported pEC50 of "Cc1cccc(-c2noc(COc3ccc(CCC(=O)O)cc3Cl)n2)c1" is ____.
5.34

State the recorded pEC50 for this entry: "CCc1ccc(-c2noc(COc3ccc(CCC(=O)O)cc3)n2)cc1"
6.68

Tell me the measured pEC50 of "COc1cccc(-c2noc(COc3ccc(CCC(=O)O)cc3Cl)n2)c1" , please.
5.52
